Biological target: PAR2 (HT-29 cells, SLIGKV activation) (Homo sapiens)
Construct: host or cells: HT-29 cells
Sequence (P55085 26-397): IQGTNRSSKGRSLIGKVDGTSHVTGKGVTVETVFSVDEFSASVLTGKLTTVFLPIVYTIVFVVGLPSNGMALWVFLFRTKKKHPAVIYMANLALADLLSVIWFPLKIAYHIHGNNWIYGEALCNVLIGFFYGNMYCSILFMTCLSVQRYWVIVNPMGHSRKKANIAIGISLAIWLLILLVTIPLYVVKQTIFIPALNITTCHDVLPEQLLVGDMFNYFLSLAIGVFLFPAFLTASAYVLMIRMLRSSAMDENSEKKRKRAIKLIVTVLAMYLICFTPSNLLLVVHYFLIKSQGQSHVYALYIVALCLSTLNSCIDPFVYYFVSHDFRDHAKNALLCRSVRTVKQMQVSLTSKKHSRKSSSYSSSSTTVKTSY
Experiment: Ca FLIPR TETRA assay, ANTAGONIST mode, stimulation with 8 μM SLIGKV
Type: cell-based
Conditions: HT-29 cells, stimulation with 8 μM SLIGKV
Readout Kind: pIC50
// scale note: pIC50 = -log10(conc_M); give the bare number

Reference set (4 entries):
{"columns": ["Compound", "Reading"],
 "data": [
  ["CCc1cc(-c2ccc(F)cc2)nn2cc(C(=O)N3CCN(C(=O)C(C)(C)O)CC3(C)C)nc12", 6.70],
  ["CCOC(=O)[C@H]1CCCN(C(=O)c2cn3nc(-c4ccc(F)cc4)cc(C(F)(F)F)c3n2)[C@@H]1C", 5.48],
  ["CC1CN(C(=O)c2cn3nc(-c4ccc(F)cc4)cc(C(F)(F)F)c3n2)CCC1O (centres unmarked)", 5.23],
  ["CCC(=O)N1CCN(C(=O)c2cn3nc(-c4ccc(F)cc4)cc(C(F)(F)F)c3n2)CC1", 4.66]
]}

Field: next compound
[in] Find the measured pIC50 of CC(C)c1cc(-c2ccc(F)cc2)nn2cc(C(=O)N3CCN(C(=O)CC4CCCCC4)[C@@H](C)C3)nc12 and report it.
[out] 8.70

----------
Biological target: PAR2 (HT-29 cells, trypsin activation) (Homo sapiens)
Construct: host or cells: HT-29 cells
Assay: Ca FLIPR TETRA assay, ANTAGONIST mode, stimulation with 3.1 U/mL trypsin
Format: cell-based
Details: HT-29 cells, antagonist mode, stimulation with 3.1 U/mL trypsin
Collected IC50 values appear next to each entry.
Note: unit µM is implicit; provide only the numeric part.

[in] Quote IC50 reported for CC(C)(C)c1cc(-c2ccc(F)cc2)nn2cc(C(=O)N3CCOC(=O)C3(C)C)nc12 please.
[out] 0.0088

[in] // fetch IC50 given entry Cc1ccc(-c2cc(C(C)C)c3nc(C(=O)N4CCN(C(=O)c5ccncn5)CC4(C)C)cn3n2)cc1
[out] 0.0123

[in] Check the records and state IC50 for CC(C)c1cc(-c2ccc(F)cc2)nn2cc(C(=O)N3CCN(C(=O)C(C)(N)C(F)(F)F)CC3(C)C)nc12 (stereo not shown)
[out] 0.0076

[in] Output IC50 of Cc1cccc(-c2cc(C(C)(C)C)c3nc(C(=O)N4CCNC(=O)C4(C)C)cn3n2)c1
[out] 0.0137

[in] Please list IC50 recorded for the molecule CC(C)c1cc(-c2ccc(C(F)(F)F)cc2)nn2cc(C(=O)N3CCN(C(=O)c4cccnn4)CC3(C)C)nc12
[out] 0.0142

[in] Find the measured IC50 of Cc1n[nH]c(C(=O)N2CCN(C(=O)c3cn4nc(-c5ccc(F)c(C)c5)cc(C(C)C)c4n3)C(C)(C)C2)n1 and report it.
[out] 0.0062

[in] Look up and report measured IC50 for this entry: Cc1c[nH]nc1C(=O)N1CCN(C(=O)c2cn3nc(-c4ccc(F)cc4)cc(C(C)C)c3n2)C(C)(C)C1
[out] 0.013

Data provenance is patent US20190119282A1.
